- protocolDetails: Biodistribution in male ddY mouse liver administered intravenously and measured at 2 mins postinjection by gamma counter analysis
- Type: ADME, organism-based
- conditionSummary: in vivo, iv
Catalogue of Drug uptake values
Express it in % ID/g; write the number only.

Example entries begin here.
C[C@H]1CN(c2nc3ccccc3s2)CCCN1C(=O)c1cc([18F])ccc1-n1nccn1	16.2
C[C@H]1CN(c2nc3ccc(F)cc3s2)CCCN1C(=O)c1cc([18F])ccc1-n1nccn1	11.5
Cc1ccc(-n2nccn2)c(C(=O)N2CCCN(c3nc4cc([18F])ccc4s3)C[C@@H]2C)c1	17.2

Let us move to another entry and its Drug uptake.
# get_value(readout='Drug uptake', item= Cc1ccc(-n2nccn2)c(C(=O)N2CCCN(c3nc4ccc([18F])cc4s3)C[C@@H]2C)c1 )
13.3

###

Below: a set of entries, each annotated with reported Drug uptake.
- protocolDetails: Biodistribution in male ddY mouse liver administered intravenously and measured at 30 mins postinjection by gamma counter analysis
- Type: ADME, organism-based
- conditionSummary: in vivo, iv, 0.5 h
Answer in % ID/g, number only, no unit symbol.

Some entries whose results are on file:
Cc1ccc(-n2nccn2)c(C(=O)N2CCCN(c3nc4ccc([18F])cc4s3)C[C@@H]2C)c1	14.7
Cc1ccc(-n2nccn2)c(C(=O)N2CCCN(c3nc4cc([18F])ccc4s3)C[C@@H]2C)c1	10.1
C[C@H]1CN(c2nc3ccc(F)cc3s2)CCCN1C(=O)c1cc([18F])ccc1-n1nccn1	20.4

As a next step, examine the molecule that follows.
For C[C@H]1CN(c2nc3ccccc3s2)CCCN1C(=O)c1cc([18F])ccc1-n1nccn1 , what is its reported Drug uptake?
17

###

- protocolDetails: Biodistribution in male ddY mouse intestine administered intravenously and measured at 30 mins postinjection by gamma counter analysis
- Format: ADME, organism-based
- conditionSummary: in vivo, iv, 0.5 h
valueKind: Drug uptake (% ID/g)
Output spec: scalar in % ID/g, unitless text.

C[C@H]1CN(c2nc3ccc(F)cc3s2)CCCN1C(=O)c1cc([18F])ccc1-n1nccn1	15.4
C[C@H]1CN(c2nc3ccccc3s2)CCCN1C(=O)c1cc([18F])ccc1-n1nccn1	28
Cc1ccc(-n2nccn2)c(C(=O)N2CCCN(c3nc4cc([18F])ccc4s3)C[C@@H]2C)c1	11.6

Query compound follows.
Reported Drug uptake, compound Cc1ccc(-n2nccn2)c(C(=O)N2CCCN(c3nc4ccc([18F])cc4s3)C[C@@H]2C)c1 : ____
11.8

###

- protocolDetails: Biodistribution in male ddY mouse brain administered intravenously and measured at 2 mins postinjection by gamma counter analysis
- Assay type: ADME, organism-based
- conditionSummary: in vivo, iv
valueKind: Drug uptake (% ID/g)
Kindly provide the numeric value in % ID/g only, without the unit symbol.

Entry C[C@H]1CN(c2nc3ccccc3s2)CCCN1C(=O)c1cc([18F])ccc1-n1nccn1 has what Drug uptake?
2.98

Given the entry Cc1ccc(-n2nccn2)c(C(=O)N2CCCN(c3nc4cc([18F])ccc4s3)C[C@@H]2C)c1 , report its measured Drug uptake.
3.81

Dear colleague, I am looking for the recorded Drug uptake of the following compound: Cc1ccc(-n2nccn2)c(C(=O)N2CCCN(c3nc4ccc([18F])cc4s3)C[C@@H]2C)c1
2.42

Please give the measured Drug uptake for this compound: C[C@H]1CN(c2nc3ccc(F)cc3s2)CCCN1C(=O)c1cc([18F])ccc1-n1nccn1
2.64

###

- protocolDetails: Biodistribution in male ddY mouse brain administered intravenously and measured at 10 mins postinjection by gamma counter analysis
- Format: ADME, organism-based
- conditionSummary: in vivo, iv
valueKind: Drug uptake (% ID/g)
Numbers only; they are read as % ID/g.

Report Drug uptake for C[C@H]1CN(c2nc3ccccc3s2)CCCN1C(=O)c1cc([18F])ccc1-n1nccn1 please.
0.82

Reported Drug uptake for Cc1ccc(-n2nccn2)c(C(=O)N2CCCN(c3nc4cc([18F])ccc4s3)C[C@@H]2C)c1 : what is it?
1.49

Fill in the blank: the reported Drug uptake of C[C@H]1CN(c2nc3ccc(F)cc3s2)CCCN1C(=O)c1cc([18F])ccc1-n1nccn1 is ____.
1.33

If you can, please state the reported Drug uptake value of Cc1ccc(-n2nccn2)c(C(=O)N2CCCN(c3nc4ccc([18F])cc4s3)C[C@@H]2C)c1 .
0.98

###

- protocolDetails: Biodistribution in male ddY mouse bone administered intravenously and measured at 10 mins postinjection by gamma counter analysis
- Assay type: ADME, organism-based, Bone element
- conditionSummary: in vivo, iv
valueKind: Drug uptake (% ID/g)
Report the value in % ID/g with no unit label.

Some solved cases for reference:
C[C@H]1CN(c2nc3ccccc3s2)CCCN1C(=O)c1cc([18F])ccc1-n1nccn1	1.4
Cc1ccc(-n2nccn2)c(C(=O)N2CCCN(c3nc4ccc([18F])cc4s3)C[C@@H]2C)c1	4.94
C[C@H]1CN(c2nc3ccc(F)cc3s2)CCCN1C(=O)c1cc([18F])ccc1-n1nccn1	1.18

Attention now turns to another entry.
Fill blank: measured Drug uptake of the compound Cc1ccc(-n2nccn2)c(C(=O)N2CCCN(c3nc4cc([18F])ccc4s3)C[C@@H]2C)c1 is ____.
8.73

###

- protocolDetails: Biodistribution in male ddY mouse intestine administered intravenously and measured at 60 mins postinjection by gamma counter analysis
- Type: ADME, organism-based
- conditionSummary: in vivo, iv, 1 h
valueKind: Drug uptake (% ID/g)
Give the value in % ID/g but do not write % ID/g after it.

Cc1ccc(-n2nccn2)c(C(=O)N2CCCN(c3nc4ccc([18F])cc4s3)C[C@@H]2C)c1	16.3
Cc1ccc(-n2nccn2)c(C(=O)N2CCCN(c3nc4cc([18F])ccc4s3)C[C@@H]2C)c1	15.3
C[C@H]1CN(c2nc3ccc(F)cc3s2)CCCN1C(=O)c1cc([18F])ccc1-n1nccn1	30.5

--- query ---
Quick one: Drug uptake of C[C@H]1CN(c2nc3ccccc3s2)CCCN1C(=O)c1cc([18F])ccc1-n1nccn1 ?
34.5

###

Reported Drug uptake by item:
- protocolDetails: Biodistribution in male ddY mouse bone administered intravenously and measured at 60 mins postinjection by gamma counter analysis
- Assay type: ADME, organism-based, Bone element
- conditionSummary: in vivo, iv, 1 h
# output: bare number, implied unit % ID/g

C[C@H]1CN(c2nc3ccccc3s2)CCCN1C(=O)c1cc([18F])ccc1-n1nccn1	1.87
C[C@H]1CN(c2nc3ccc(F)cc3s2)CCCN1C(=O)c1cc([18F])ccc1-n1nccn1	1.24
Cc1ccc(-n2nccn2)c(C(=O)N2CCCN(c3nc4cc([18F])ccc4s3)C[C@@H]2C)c1	37.8

Fill in the blank: the reported Drug uptake of Cc1ccc(-n2nccn2)c(C(=O)N2CCCN(c3nc4ccc([18F])cc4s3)C[C@@H]2C)c1 is ____.
16

###

# Drug uptake per record follows
- protocolDetails: Biodistribution in male ddY mouse spleen administered intravenously and measured at 10 mins postinjection by gamma counter analysis
- Type: ADME, organism-based
- conditionSummary: in vivo, iv
The figure you give is taken to be in % ID/g; do not add the unit.

Worked cases, Drug uptake given:
Cc1ccc(-n2nccn2)c(C(=O)N2CCCN(c3nc4cc([18F])ccc4s3)C[C@@H]2C)c1	4.09
Cc1ccc(-n2nccn2)c(C(=O)N2CCCN(c3nc4ccc([18F])cc4s3)C[C@@H]2C)c1	2.38
C[C@H]1CN(c2nc3ccccc3s2)CCCN1C(=O)c1cc([18F])ccc1-n1nccn1	1.87

// query Drug uptake value for entry C[C@H]1CN(c2nc3ccc(F)cc3s2)CCCN1C(=O)c1cc([18F])ccc1-n1nccn1
1.77

###

- protocolDetails: Biodistribution in male ddY mouse stomach administered intravenously and measured per organ at 2 mins postinjection by gamma counter analysis
- Assay type: ADME, organism-based
- conditionSummary: in vivo, iv
Listed here are compounds together with their documented Drug uptake.
Unit %ID implied. Number only.

Worked examples, 3 compounds total:
Cc1ccc(-n2nccn2)c(C(=O)N2CCCN(c3nc4ccc([18F])cc4s3)C[C@@H]2C)c1	1.15
C[C@H]1CN(c2nc3ccccc3s2)CCCN1C(=O)c1cc([18F])ccc1-n1nccn1	1.4
C[C@H]1CN(c2nc3ccc(F)cc3s2)CCCN1C(=O)c1cc([18F])ccc1-n1nccn1	1.03

Now look at this entry.
I'd like to know its Drug uptake. The compound in question is Cc1ccc(-n2nccn2)c(C(=O)N2CCCN(c3nc4cc([18F])ccc4s3)C[C@@H]2C)c1
2.38
